target: talin R8 domain (Mus musculus, UniProt P26039); construct: conducted using 0.1 mM [^15N]talin R8 domain; hexa-histidine tag followed by TEV protease cleavage site (N, cleaved yes); made in house; host or cells: E. coli BL21 STAR (DE3); assay: 1H,15N-HSQC NMR titration of talin R8 with peptides; assay type: binding
Sequence (P26039 1461-1580 limits assumed): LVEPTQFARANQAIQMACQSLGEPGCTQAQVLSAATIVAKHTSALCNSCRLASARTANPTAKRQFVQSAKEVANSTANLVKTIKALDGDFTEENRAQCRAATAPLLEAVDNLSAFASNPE
Ends that are not written are not given here.

[
  {
    "SEQUENCE_CONTENT": "MDDLDALLADLESTTS [paxillin LD1]",
    "Kd / µM": 168
  }
]
